tested on: NCI-H1092 (Small Cell Lung Carcinoma); test: combination Emax (second highest fraction inhibited in the dose matrix, 72 h); higher = more inhibition; extreme values may be limits of the assay
quantity: combination Emax
In your answer, state the number alone without any accompanying words.

Which combination Emax is reported with NCI-H1092 (Small Cell Lung Carcinoma) for this entry: Cc1cc2ncnn2cc1Nc1ncc2c(n1)n(C1CCOCC1)c(=O)n2C [AZD7648] + C[C@@H]1COCCN1C2=NC(=NC(=C2)C3(CC3)[S@](=N)(=O)C)C4=C5C=CNC5=NC=C4 [AZD6738] (first compound max 10 µM, 7x7, partner max 10 µM) ?
0.302

Which combination Emax is reported with NCI-H1092 (Small Cell Lung Carcinoma) for this entry: COc1nnc2ccc(N3CCC(c4ccc(OCCN5CCN(C)C(=O)[C@H]5C)cc4)CC3)nn12 [AZD5153] + CN(CC[C@H](CSC1=CC=CC=C1)NC2=C(C=C(C=C2)S(=O)(=O)NC(=O)C3=CC=C(C=C3)N4CCC(CC4)[C@H](C5=CC=CC=C5C6=CC=C(C=C6)Cl)O)S(=O)(=O)C(F)(F)F)CCO [AZD4320] (first compound max 1 µM, 7x7, partner max 1 µM) ?
0.924

Which combination Emax is reported with NCI-H1092 (Small Cell Lung Carcinoma) for this entry: CCN(CCO)CCCOc1ccc2c(Nc3cc(CC(=O)Nc4cccc(F)c4)[nH]n3)ncnc2c1 [AZD2811] + O=C(c1cc(Cc2n[nH]c(=O)c3ccccc23)ccc1F)N1CCN(C(=O)C2CC2)CC1 [Olaparib] (first compound max 1 µM, 7x7, partner max 10 µM) ?
0.212

Values from the supplement of paper PMC11061612
